- System: CCRF-CEM
- Assay remarks: Cytotoxicity against human CCRF-CEM cells in presence of thymidine and absence of hypoxanthine
Measurement label: IC50 (nM)
// units = nM; emit number, no label

Answered examples (6):
1) Nc1nc(N)c(CCCC(C(=O)C(F)(F)F)c2ccc(C(=O)N[C@@H](CCC(=O)O)C(=O)O)cc2)c(=O)[nH]1 (stereo partly drawn)	17
2) CS[C@H](CCCc1c(N)nc(N)[nH]c1=O)c1ccc(C(=O)N[C@@H](CCC(=O)O)C(=O)O)cc1	80
3) Nc1nc(N)c(CCC[C@@H](O)c2ccc(C(=O)N[C@@H](CCC(=O)O)C(=O)O)cc2)c(=O)[nH]1	5700
4) CO[C@@H](CCCc1c(N)nc(N)[nH]c1=O)c1ccc(C(=O)N[C@@H](CCC(=O)O)C(=O)O)cc1	900
5) CO[C@H](CCCc1c(N)nc(N)[nH]c1=O)c1ccc(C(=O)N[C@@H](CCC(=O)O)C(=O)O)cc1	700
6) CS[C@@H](CCCc1c(N)nc(N)[nH]c1=O)c1ccc(C(=O)N[C@@H](CCC(=O)O)C(=O)O)cc1	70

Continue with the compound presented below.
Problem: Report IC50 for Nc1nc(N)c(CCCCc2ccc(C(=O)N[C@@H](CCC(=O)O)C(=O)O)cc2)c(=O)[nH]1 [DIDEAZAACYCLOTETRAHYDROFOLIC ACID]
Result: 3600

* * *

- Assay target: Bifunctional purine biosynthesis protein ATIC (Homo sapiens, UniProt P31939)
- Sequence (P31939 whole entry): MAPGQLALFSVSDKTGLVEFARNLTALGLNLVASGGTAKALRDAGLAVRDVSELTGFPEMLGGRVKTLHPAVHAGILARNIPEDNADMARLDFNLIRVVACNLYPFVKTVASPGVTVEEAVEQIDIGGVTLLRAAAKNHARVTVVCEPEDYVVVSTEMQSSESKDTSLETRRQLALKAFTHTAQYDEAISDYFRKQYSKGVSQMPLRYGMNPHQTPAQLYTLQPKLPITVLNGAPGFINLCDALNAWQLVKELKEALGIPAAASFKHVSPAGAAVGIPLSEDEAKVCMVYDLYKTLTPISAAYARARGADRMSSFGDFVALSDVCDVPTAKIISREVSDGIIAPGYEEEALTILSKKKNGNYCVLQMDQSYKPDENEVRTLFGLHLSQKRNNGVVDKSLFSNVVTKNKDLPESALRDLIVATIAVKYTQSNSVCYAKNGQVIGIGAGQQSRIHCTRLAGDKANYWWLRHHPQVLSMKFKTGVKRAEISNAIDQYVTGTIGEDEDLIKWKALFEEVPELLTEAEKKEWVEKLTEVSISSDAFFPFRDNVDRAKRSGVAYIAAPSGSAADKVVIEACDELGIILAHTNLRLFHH
- Assay remarks: Inhibition of human recombinant AICAR transformylase
pKi: −log10 of the molar value.
Catalogue of pKi values

Answered examples (9):
1. Nc1nc(N)c(CCCCc2ccc(C(=O)N[C@@H](CCC(=O)O)C(=O)O)cc2)c(=O)[nH]1 [DIDEAZAACYCLOTETRAHYDROFOLIC ACID]	4.70
2. CS[C@H](CCCc1c(N)nc(N)[nH]c1=O)c1ccc(C(=O)N[C@@H](CCC(=O)O)C(=O)O)cc1	< 4.00
3. Nc1nc(N)c(CCCC(C(=O)C(F)(F)F)c2ccc(C(=O)N[C@@H](CCC(=O)O)C(=O)O)cc2)c(=O)[nH]1 (stereo not given in full)	< 4.00
4. Nc1nc(N)c(CCC[C@H](O)c2ccc(C(=O)N[C@@H](CCC(=O)O)C(=O)O)cc2)c(=O)[nH]1	< 4.00
5. CS[C@@H](CCCc1c(N)nc(N)[nH]c1=O)c1ccc(C(=O)N[C@@H](CCC(=O)O)C(=O)O)cc1	< 4.00
6. Nc1nc2c(c(=O)[nH]1)C[C@@H](CCc1ccc(C(=O)N[C@@H](CCC(=O)O)C(=O)O)cc1)CN2 [LOMETREXOL]	< 4.00
7. CO[C@H](CCCc1c(N)nc(N)[nH]c1=O)c1ccc(C(=O)N[C@@H](CCC(=O)O)C(=O)O)cc1	< 4.00
8. CO[C@@H](CCCc1c(N)nc(N)[nH]c1=O)c1ccc(C(=O)N[C@@H](CCC(=O)O)C(=O)O)cc1	< 4.00
9. Nc1nc(N)c(CCCC2(c3ccc(C(=O)N[C@@H](CCC(=O)O)C(=O)O)cc3)SCCCS2)c(=O)[nH]1	4.70

Problem: Report pKi for Nc1nc(N)c(CCC[C@@H](O)c2ccc(C(=O)N[C@@H](CCC(=O)O)C(=O)O)cc2)c(=O)[nH]1
Result: < 4.00
